- protocol summary: Displacement of [125I]IMPY from amyloid beta 1 to 42 after 2 hrs
pKi: −log10 of the molar value.
measured property: pKi

Would you please look over these solved cases?
> print(dat)
                               input.smiles  measured.property   val
1  CN(C)c1ccc(C(=O)/C=C/c2ccc3[nH]ccc3c2)cc1                pKi  8.29
2    CNc1ccc(C(=O)/C=C/c2ccc3[nH]ccc3c2)cc1                pKi  7.29

P. O=C(/C=C/c1ccc2[nH]ccc2c1)c1ccc(Br)cc1
Q. CN(C)c1ccc(/C=C/C(=O)c2ccc(I)cc2)cc1
R. O=C(/C=C/c1ccc2[nH]ccc2c1)c1ccc(F)cc1
List items by pKi in falling order. Order the labels as requested and give them as your answer.
Q, P, R

1. O=C(/C=C/c1ccc2[nH]ccc2c1)c1ccc(I)cc1
2. COc1ccc2cc(C(=O)/C=C/c3ccc4[nH]ccc4c3)ccc2c1
Consider 1 and 2 . Which of these has its pKi at a higher number? Kindly state the label of the option you pick.
2

###

- protocol summary: Displacement of [125I]IMPY from amyloid beta 1 to 42 after 2 hrs
measured property: Ki (nM)

> print(dat)
                             input.smiles   val
1  O=C(/C=C/c1ccc2[nH]ccc2c1)c1ccc(Cl)cc1  8.43
2  COc1ccc(C(=O)/C=C/c2ccc3[nH]ccc3c2)cc1  8.52
